Assay: qHTS assay for small molecule agonists of retinoid X receptor alpha signaling (AID 588544)
Details: HEK293T RXRa-UAS-bla, beta-lactamase reporter, 18 h; 530 nm emission
Description: NIH Chemical Genomics Center [NCGC] U.S. Environmental Protection Agency [EPA] National Institutes of Environmental Health Sciences [NIEHS] National Toxicology Program [NTP] NCGC Assay Overview The Retinoid X receptor (RXR), a nuclear hormone receptor is expressed in liver, spleen, placenta, epidermis, central nervous system. […]
Records with an inconclusive call do not appear.
Could you please report measured max response for the items listed next?

Please report the recorded max response for `CC(=O)Nc1ccccc1C` .
-2.35%

Please report the recorded max response for `O=c1[nH][nH]c(=O)c2cc([N+](=O)[O-])ccc12` .
-1.84%

Please report the recorded max response for `C=Cc1ccc(C=C)cc1` .
-1.02%

Please report the recorded max response for `CCCCCCCCC` .
-5.14%

Please report the recorded max response for `Cc1ccc(C)c(O)c1` .
0.17%

Please report the recorded max response for `Cc1ccc(Cl)cc1N` .
3.01%

Please report the recorded max response for `O=[N+]([O-])c1ccccc1CCO` .
4.35%

Please report the recorded max response for `O=C(O)CNC(=O)c1ccc([N+](=O)[O-])cc1` .
0.246%

Please report the recorded max response for `OC1CCCC1` .
-0.127%

Please report the recorded max response for `Cc1cscn1` .
-3.55%

Please report the recorded max response for `Nc1cccc(N)c1` .
0.0667%

Please report the recorded max response for `CC(=O)c1ccccn1` .
-4.17%

Please report the recorded max response for `CCCCC=O` .
-7.77%

Please report the recorded max response for `CC(=O)OCCC(C)C` .
-5.59%

Please report the recorded max response for `Cc1cc(C)c(N)cc1C` .
-11.9%

Please report the recorded max response for `c1ccsc1` .
-5.29%

Please report the recorded max response for `CCNS(=O)(=O)c1ccc(C)cc1` .
7.68%

Please report the recorded max response for `Cc1ccccc1C=O` .
-10.4%

Please report the recorded max response for `Clc1cc(Cl)cc(Cl)c1` .
-9.27%

Please report the recorded max response for `O=C(O)c1ccc(CO)o1` .
-7.5%

Please report the recorded max response for `Cc1cc(C)cc([N+](=O)[O-])c1` .
8.04%

Please report the recorded max response for `C=C(C)C(=O)OCCCCCCCCCC` .
-10.3%

Please report the recorded max response for `O=[N+]([O-])c1ccc(CCO)cc1` .
-1.7%

Please report the recorded max response for `C=C(C)OC(C)=O` .
12.6%

Please report the recorded max response for CCCC(Cl)CCCC(Cl)CCC(Cl)CCC(Cl)CCC(Cl)CCCC(Cl)CCC (stereo unspecified) .
-10.5%

Please report the recorded max response for `O=C(O)c1ccc(Cl)c(Cl)c1` .
12.9%

Please report the recorded max response for `C1COC1` .
-1.49%

Please report the recorded max response for `CCC(C)(C)C(=O)O` .
-9.68%

Please report the recorded max response for CC1CCC2CC1C2(C)C (stereo unspecified) .
-0.475%

Please report the recorded max response for `O=Cc1c(Cl)cccc1Cl` .
3.02%

Please report the recorded max response for `CC#N` .
8.5%

Please report the recorded max response for `Cc1cccc(C)c1` .
-8.44%

Please report the recorded max response for `CC(C)(C)OC=O` .
-9.54%

Please report the recorded max response for CC1(N)CCC(C(C)(C)N)CC1 (stereo unspecified) .
-6.34%

Please report the recorded max response for `Cc1ccc2ncccc2c1` .
-4.8%

Please report the recorded max response for `C[C@@H]1O[C@@H](O[C@@H]2[C@@H](O)[C@H](OCCc3ccc(O)c(O)c3)O[C@H](CO[C@@H]3O[C@H](CO)[C@@H](O)[C@H](O)[C@H]3O)[C@H]2OC(=O)/C=C/c2ccc(O)c(O)c2)[C@H](O)[C@H](O)[C@H]1O` .
0.999%

Please report the recorded max response for `CCCCCCC(=O)O` .
-3.5%

Please report the recorded max response for `C=CCOC(=O)COCCC(C)C` .
-2.63%

Please report the recorded max response for `Nc1cc(Cl)c([N+](=O)[O-])cc1O` .
-11.8%

Please report the recorded max response for `C=CCCCC` .
-12.2%

Please report the recorded max response for `CC(C)C=O` .
3.23%

Source of measurements: PubChem BioAssay (NCATS)
